Tested on: U2OS
Measurement Notes: Multiplex assay against U2OS
Assay type: toxicity, cell-based
Condition Summary: human, 12 h, 1 µM, compound concentration 1 uM, replicate 1

# Structure String, Population Normal (%)
measured = [
    ("C=CCN1C[C@H](C(=O)N(CCCN(C)C)C(=O)NCC)C[C@@H]2c3cccc4[nH]cc(c34)C[C@H]21", 97),
    ("Cc1cc(=O)n(C)c2cc(N3C(=O)CC[C@H](NS(=O)(=O)CC(C)C)[C@H]3c3ccc(Cl)cc3)ccc12", 96),
    ("C[C@@H]1CC(=O)Nc2cccc(-c3ccc4c(c3)c(-c3cnn(C)c3)nn4C)c2N1", 98),
]

---

System: Fibroblast
Measurement Notes: Multiplex assay against human fibroblast
Assay type: toxicity, cell-based
Condition Summary: 48 h, 10 µM, compound concentration 10 uM, replicate 2
Quick reference: Population Mitochondria Different-Phenotype (%) of the listed items.
Reported Endpoint: Population Mitochondria Different-Phenotype (%)

# Compound, Endpoint Value
rows = [
    ("S=C(NCCCc1c[nH]cn1)NCCCN(Cc1ccc(Cl)c(Cl)c1)c1ccc(Br)cn1", 1),
    ("Cc1cc(-c2ccc3c(c2)CC[C@H]3N2CC3(CCN(C(=O)Cc4cn5cc(C)sc5n4)CC3)C2)ncn1", 14),
    ("COCCCN1CCC(NC(=O)c2cc(Cl)c(N)c3c2OCC3)CC1 [PRUCALOPRIDE]", 7),
    ("COc1cc(Nc2ncc3c(n2)-c2ccc(Cl)cc2C(c2c(F)cccc2OC)=NC3)ccc1C(=O)O", 15),
    ("CCC(=O)OCC(=O)[C@@]1(OC(=O)CC)[C@@H](C)C[C@H]2[C@@H]3CCC4=CC(=O)C=C[C@]4(C)[C@@]3(Cl)[C@@H](O)C[C@@]21C [BECLOMETHASONE DIPROPIONATE]", 15),
    ("Nc1nc(CC(=O)Nc2ccc(CCNC[C@H](O)c3ccccc3)cc2)cs1", 6),
    ("COc1cc2nc(N3CCN(C(=O)c4ccco4)CC3)nc(N)c2cc1OC.Cl [PRAZOSIN HYDROCHLORIDE]", 5),
    ("CC(C)C[C@H](CO)Nc1nc(S[C@@H](C)c2ccccc2)nc2nc(N)sc12", 18),
    ("O=c1nc2[nH]c3ccccc3nc-2c(=O)[nH]1", 17),
    ("C[C@@H]1CC(=O)Nc2cccc(-c3ccc4c(c3)c(-c3cnn(C)c3)nn4C)c2N1", 2),
    ("Cc1nn(C)c2nc(NNC(=O)Nc3cc(Cl)nc(Cl)c3)cc(C(C)C)c12", 5),
    ("CCn1c(-c2nc3cc(C(=O)N4CCCC(N)C4)ccc3n2C)cc2ccccc21.Cl (stereo not drawn)", 16),
    ("COCCn1c(C)c(C)s/c1=N\\C(=O)C1C(C)(C)C1(C)C", 11),
    ("CC(C)(O)C(=O)N1CCN(c2ccc(C(F)(F)F)c(C3=C(c4c[nH]c5ccccc45)C(=O)NC3=O)c2)CC1", 30),
    ("CN1CCN(c2ccc(Nc3c4ccccc4nc4ccccc34)cc2)CC1.Cl.Cl.O", 12),
    ("CCCCCCNC(=O)Nc1ccc(S(=O)(=O)Nc2ccc(CCNC[C@H](O)COc3ccc(O)cc3)cc2)cc1", 11),
    ("O=C(O)CCC/C=C\\CC1C(O)CC(O)C1/C=C/C(O)COc1cccc(Cl)c1 (stereo not drawn)", 4),
    ("OCCCNc1cc(-c2ccnc(Nc3cccc(Cl)c3)n2)ccn1", 20),
    ("CSc1nc(NC2CCCC2)c([N+](=O)[O-])c(NC2CCCC2)n1", 7),
    ("Cc1sc2c(c1C)C(c1ccc(Cl)cc1)=N[C@H](CC(=O)OC(C)(C)C)c1nnc(C)n1-2", 9),
    ("CC(C)(C)c1ccc(CSc2cnn(C(C)(C)C)c(=O)c2Cl)cc1", 10),
    ("C[C@H](NC(=O)CNC(=O)c1cccc(Cl)c1)c1ccccc1", 5),
    ("CN1C[C@H](C(=O)N[C@]2(C)O[C@@]3(O)[C@@H]4CCCN4C(=O)[C@H](Cc4ccccc4)N3C2=O)C[C@@H]2c3cccc4[nH]cc(c34)C[C@H]21.CS(=O)(=O)O [DIHYDROERGOTAMINE MESYLATE]", 5),
    ("CC(F)(F)CN1CCOc2c(nn(-c3ccccc3Cl)c2-c2ccc(Cl)cc2)C1=O", 7),
    ("COc1ccc2[nH]c(I)c(CCNC(C)=O)c2c1", 5),
    ("CN1CCC(C(=O)c2cccc(NC(=O)c3c(F)cc(F)cc3F)n2)CC1", 3),
    ("COC(c1ccccc1)(c1ccccc1)[C@H](Oc1nc(C)cc(C)n1)C(=O)O", 0),
    ("Cl.Cl.OCCOCCN1CCN(C(c2ccccc2)c2ccc(Cl)cc2)CC1 (stereo not drawn) [HYDROXYZINE HYDROCHLORIDE]", 2),
    ("COc1c(Nc2ccc(S(C)(=O)=O)nc2C)ncnc1OC1CCN(C(=O)OC(C)C)CC1", 18),
    ("O=C(NCCNCC(O)COc1ccc(O)cc1)N1CCOCC1.O=C(NCCNCC(O)COc1ccc(O)cc1)N1CCOCC1.O=C(O)/C=C/C(=O)O (stereo not drawn) [XAMOTEROL FUMARATE]", 4),
    ("Cc1cc(=O)n(C)c2cc(N3C(=O)CC[C@H](NS(=O)(=O)CC(C)C)[C@H]3c3ccc(Cl)cc3)ccc12", 8),
    ("Cc1cc(NC(=O)NCCN2CCC(O)(Cc3ccccc3)CC2)c2ccccc2n1", 6),
    ("COc1cc(OC2CCN(C(C)=O)CC2)ccc1C(=O)N1CCC(N2C(=O)OCc3ccccc32)CC1", 10),
]

Where these numbers come from: ChEMBL document CHEMBL5058577
